Heads up, these molecules all have pIC50 values measured for Full-length human PIM-1 (Homo sapiens).
Units for pIC50: none; it is -log10 of a concentration expressed in mol/L.

Form: molecule = O=C(CC1CNC(=O)c2cc(-c3ccsc3)cn21)NCc1cccc(F)c1 (stereo not drawn) ; pIC50 = 6.24

Data point: O=C(C[C@@H]1CNC(=O)c2cc(-c3cc(F)ccc3F)cn21)N[C@H](CO)C1CCCCC1 [A158-M-B61 isomer R] ; pIC50 = 6.07

// field: pIC50; key: O=C(CC1CNC(=O)c2cc(-c3ccc(F)c(F)c3)cn21)NCc1ccccc1 (stereo not drawn) ; value = 6.66

pIC50 for O=C(CC1CNC(=O)c2cc(-c3ccc(F)c(F)c3)cn21)NCC1CCCCC1 (stereo not drawn) is 7.05

Notebook: O=C(C[C@H]1CNC(=O)c2cc(-c3cccc(C(F)(F)F)c3)cn21)N[C@H](CO)c1ccccc1 [A133-M-B62 isomer S] , pIC50 read as 6.89

Given item COC(=O)c1cccc(-c2cc3n(c2)C(CC(=O)NCc2ccccc2)CNC3=O)c1 (stereo not drawn) , the value recorded as its pIC50 is 5.32

Lab note: O=C(CC1CNC(=O)c2cc(-c3ccccc3F)cn21)NCC1CCCCC1 (stereo not drawn) gave pIC50 of 6.92

Recorded result, O=C(CC1CNC(=O)c2cc(-c3ccc(F)c(F)c3)cn21)NCc1ccncc1 (stereo not drawn) , pIC50: 6.01

Record O=C(CC1CNC(=O)c2cc(-c3cccc(Cl)c3)cn21)Nc1ccccc1 (stereo not drawn) . Reported pIC50: 6.37

Quick note, pIC50 for O=C(C[C@H]1CNC(=O)c2cc(-c3cccc(C(F)(F)F)c3)cn21)N[C@H](CO)C1CCCCC1 [A133-M-B61 isomer S] landed at 7.15

Consider O=C(CC1CNC(=O)c2cc(-c3cccc(F)c3)cn21)NCc1cccc(F)c1 (stereo not drawn) . Its measured pIC50 is 6.72

The reported value for O=C(CC1CNC(=O)c2cc(-c3ccc(F)cc3F)cn21)NCc1ccncc1 (stereo not drawn) in terms of pIC50 is 5.39

// recorded pIC50 for O=C(CC1CNC(=O)c2cc(-c3ccc(F)c(F)c3)cn21)NCc1ccc(F)cc1 (stereo not drawn) : 6.39

Data point: O=C(CC1CNC(=O)c2cc(-c3cn[nH]c3)cn21)NCc1ccc(F)cc1 (stereo not drawn) ; pIC50 = 5.96

Noted for O=C(CC1CNC(=O)c2cc(-c3cccc(Cl)c3)cn21)NC1CCCCC1 (stereo not drawn) : its pIC50 reads 6.68

Record C=CCN1CCN(C(=O)CC2CNC(=O)c3cc(-c4cccc(Cl)c4)cn32)CC1 (stereo not drawn) . Reported pIC50: 6.64

Recorded pIC50 (molecule CC(C)CCNC(=O)CC1CNC(=O)c2cc(-c3ccccc3F)cn21 (stereo not drawn) ): 6.15

Kindly note the recorded pIC50 for CN1CCN(C(=O)CC2CNC(=O)c3cc(-c4ccnc(F)c4)cn32)C(c2ccccc2)C1 (mixture of isomers) , which is 6.16

For reference, reported pIC50 for O=C(CC1CNC(=O)c2cc(-c3cccc(F)c3)cn21)NCc1ccncc1 (stereo not drawn) stands at 6.24

Memo: O=C(CC1CNC(=O)c2cc(-c3ccsc3)cn21)NCC1CCCCC1 (stereo not drawn) , reported pIC50: 6.34

Per the records, this molecule ( NC[C@@H](NC(=O)C[C@H]1CNC(=O)c2cc(-c3cccc(F)c3)cn21)c1ccccc1 [A127-M-B65 isomer S] ) has pIC50 equal to 8.00

molecule CC(C)CCNC(=O)CC1CNC(=O)c2cc(-c3ccc(F)cc3F)cn21 (stereo not drawn) , pIC50 observed: 6.31

For reference, reported pIC50 for O=C(C[C@H]1CNC(=O)c2cc(-c3cccc(F)c3)cn21)N[C@H](CO)C1CCCCC1 [A127-M-B61 isomer S] stands at 7.70

# molecule O=C(CC1CNC(=O)c2cc(-c3cccc(OC(F)(F)F)c3)cn21)NCc1ccccc1 (stereo not drawn) ; its pIC50 = 6.14

pIC50 measured on Cc1ccccc1NC(=O)CC1CNC(=O)c2cc(-c3cccc(Cl)c3)cn21 (stereo not drawn) = 5.86

Entry O=C(C[C@@H]1CNC(=O)c2cc(-c3ccnc(F)c3)cn21)N[C@H](CO)Cc1ccccc1 [A157-M-B64 isomer R] — recorded pIC50 = 6.15

Item: O=C(CC1CNC(=O)c2cc(-c3cccc(F)c3)cn21)NCc1ccccc1 (stereo not drawn) | pIC50: 6.74
